experimental_protocol: Protective index, ratio of TD50 for neurotoxicity in Mus musculus Swiss albino (mouse) to ED50 for anticonvulsant activity in Mus musculus Swiss albino (mouse) measured 0.5 hr post compound treatment
Format: toxicity, organism-based
cond: in vivo, read-out: Ratio TD50/ED50
result_type: selectivity ratio at 0.5 h
I'd appreciate a reply containing only the number, no unit.

Asked: // lookup selectivity ratio at 0.5 h for NC(=O)Cc1ccccc1-c1cccnc1
Given back: 26

* * *

experimental_protocol: Neurotoxicity in ip dosed Mus musculus Swiss albino (mouse) assessed as motor impairment measured after 0.5 hr post compound treatment for 1 min by rotarod test
Assay type: toxicity, organism-based
cond: in vivo
result_type: TD50 at 0.5 hr (mg/kg)
Numbers only here, please. The scale is mg/kg.

Asked: Can you look up the measured TD50 at 0.5 hr of NC(=O)Cc1ccccc1-c1cccnc1 for me?
Given back: 215

* * *

Tested on: Mus musculus
experimental_protocol: Anticonvulsant activity in Mus musculus Swiss albino (mouse) assessed as protection against maximal electroshock-induced seizures at 300 mg/kg, ip measured after 0.5 hr post compound treatment
Assay type: functional, organism-based
Design: dose 300 mg/kg
Active and inactive are the calls of the source. No cut-off for these calls is given here.
result_type: Activity

# smiles_entry, result_type, experimental_value
measured = [
    ("NC(=O)NNC(=O)Cc1ccccc1-c1cccnc1", "Activity", "inactive"),
    ("O=C(NCc1ccccc1-c1cccnc1)NC1CCCCC1", "Activity", "inactive"),
    ("CC(C)(C)NC(=O)NCc1ccccc1-c1cccnc1", "Activity", "inactive"),
    ("NC(=S)NNC(=O)Cc1ccccc1-c1cccnc1", "Activity", "inactive"),
]

Source: ChEMBL document CHEMBL3045718
